Catalogue of pIC50 values
# ASSAYED TARGET: human C5aR(CD88) (Homo sapiens)
# Construct: expressed in transfected cells; host or cells: rat basophilic leukemia cells (RBL)
# Sequence (P21730 1-350): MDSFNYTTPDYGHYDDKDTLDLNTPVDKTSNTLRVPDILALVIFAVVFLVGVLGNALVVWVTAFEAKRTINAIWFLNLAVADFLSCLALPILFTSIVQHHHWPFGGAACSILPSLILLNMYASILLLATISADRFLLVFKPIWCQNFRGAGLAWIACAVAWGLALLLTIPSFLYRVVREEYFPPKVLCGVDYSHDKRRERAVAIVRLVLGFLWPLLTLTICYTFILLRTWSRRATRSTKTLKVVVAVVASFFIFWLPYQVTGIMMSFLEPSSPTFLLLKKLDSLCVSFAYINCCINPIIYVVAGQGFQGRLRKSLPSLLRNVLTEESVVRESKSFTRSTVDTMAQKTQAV
# EXPERIMENT SUMMARY: Determination of the IC50 value in an enzyme release assay (functional assay, antagonistic activity)
# Assay type: cell-based
# STATED CONDITIONS: antagonistic activity; IC50 group in enzyme release assay, RBL cells expressing human C5aR(CD88); read-out: activity (group)
pIC50: −log10 of the molar value. Starred links: 1 amine or outer side, 2 acyl side, 3 side chain; linkers in the order of their positions; H or OH if unused. Positions of bridges follow the written chain, without caps; N, C: chain ends. Non-standard residues stand in square brackets, D forms with d. Residues, ends and D or L forms follow the SMILES beside them. *: point of attachment. Phe(4-guanidino) = N=C(N)Nc1ccc(C[C@H](N)C(=O)O)cc1; Dihydroorotyl(S) = O=C1C[C@@H](C(=O)*)NC(=O)N1; dβ3hPhg = O=C(C[C@H](N[*:1])c1ccccc1)[*:2]; Phe(3-Cl) = N[C@@H](Cc1cccc(Cl)c1)C(=O)O; Phe(2-Cl) = N[C@@H](Cc1ccccc1Cl)C(=O)O; Phe(4-F) = N[C@@H](Cc1ccc(F)cc1)C(=O)O; Bta = N[C@@H](Cc1csc2ccccc12)C(=O)O; Hyp = O=C(O)[C@@H]1C[C@@H](O)CN1; d(hLeu) = CC(C)CC[C@@H](N)C(=O)O; dCha = N[C@H](CC1CCCCC1)C(=O)O; NMeA = CN[C@@H](C)C(=O)O; Nle = CCCC[C@H](N)C(=O)O; Orn = NCCC[C@H](N)C(=O)O; Aze = O=C(O)[C@@H]1CCN1

COMPOUND | pIC50
CC(=O)N[C@@H](Cc1ccccc1)C(=O)N[C@@H](Cc1c[nH]cn1)C(=O)N1CCC[C@H]1C(=O)N[C@H](CC1CCCCC1)C(=O)N[C@@H](Cc1csc2ccccc12)C(=O)N[C@@H](Cc1ccccc1)C(N)=O [Compound 230, Ac-Phe-His-Pro-cha-Bta-Phe-NH2] (Ac-FHP[dCha][Bta]F-NH2) | 6.70 to 7.30
CC(=O)N[C@@H](Cc1ccccc1)C(=O)N[C@@H](Cc1csc2ccccc12)C(=O)N1CC[C@H]1C(=O)N[C@H](CC1CCCCC1)C(=O)N[C@@H](Cc1csc2ccccc12)C(=O)N[C@@H](Cc1ccccc1)C(N)=O [Compound 112, Ac-Phe-Bta-Aze-cha-Bta-Phe-NH2] (Ac-F[Bta][Aze][dCha][Bta]F-NH2) | 7.30 to 7.70
CC(C)CC[C@@H](NC(=O)[C@@H]1CCCN1C(=O)[C@H](CCCN)NC(=O)[C@H](Cc1ccccc1)NC(=O)[C@@H]1CC(=O)NC(=O)N1)C(=O)N[C@@H](Cc1cccc(Cl)c1)C(=O)N[C@@H](Cc1ccccc1)C(N)=O [Compound 351, Hoo-Phe-Orn-Pro-hle-Mcf-Phe-NH2] ({Dihydroorotyl(S)}-F[Orn]P[d(hLeu)][Phe(3-Cl)]F-NH2) | 7.30 to 7.70
CC(C)CC[C@H]1NC(=O)[C@@H]2CCCN2C(=O)[C@@H](NC(=O)[C@@H](N)Cc2ccccc2)CCCNC(=O)[C@H](Cc2ccccc2)NC(=O)[C@H](Cc2ccccc2Cl)NC1=O [Compound 378, H-Phe-[Orn-Pro-hle-Ocf-Phe]] (H-F[Orn]P[d(hLeu)][Phe(2-Cl)]F; lactam 2-C) | 6.70 to 7.30
CC(=O)N[C@@H](Cc1ccccc1)C(=O)N[C@@H](Cc1ccc(NC(=N)N)cc1)C(=O)N1CCC[C@H]1C(=O)N[C@H](CC1CCCCC1)C(=O)N[C@@H](Cc1csc2ccccc12)C(=O)N[C@@H](Cc1ccccc1)C(N)=O [Compound 228, Ac-Phe-Guf-Pro-cha-Bta-Phe-NH2] (Ac-F[Phe(4-guanidino)]P[dCha][Bta]F-NH2) | 7.30 to 7.70
CCCC[C@@H]1NC(=O)[C@H](Cc2csc3ccccc23)NC(=O)[C@@H](CCC(C)C)NC(=O)[C@@H]2CCCN2C(=O)[C@@H](NC(=O)[C@H](Cc2ccccc2)NC(C)=O)CCCNC1=O [Compound 196, Ac-Phe-[Orn-Pro-hle-Bta-Nle]] (Ac-F[Orn]P[d(hLeu)][Bta][Nle]; lactam 2-C) | 6.70 to 7.30
CC(=O)N[C@@H](Cc1ccc(F)cc1)C(=O)N[C@@H](CCCN)C(=O)N1CCC[C@H]1C(=O)N[C@H](CC1CCCCC1)C(=O)N[C@@H](Cc1csc2ccccc12)C(=O)N[C@@H](Cc1ccccc1)C(N)=O [Compound 169, Ac-Pff-Orn-Pro-cha-Bta-Phe-NH2] (Ac-[Phe(4-F)][Orn]P[dCha][Bta]F-NH2) | 7.30 to 7.70
CCCC[C@@H]1NC(=O)[C@H](Cc2cccc(Cl)c2)NC(=O)[C@@H](CCC(C)C)NC(=O)[C@@H]2C[C@@H](OC)CN2C(=O)[C@@H](NC(=O)[C@@H](N)Cc2ccccc2)CCCNC1=O [Compound 354, H-Phe-[Orn-Hym-hle-Mcf-Nle]] (H-F[Orn][Hyp](Me)[d(hLeu)][Phe(3-Cl)][Nle]; lactam 2-C) | 6.70 to 7.30
CC(=O)N[C@@H](Cc1ccccc1)C(=O)N[C@@H](CCCN)C(=O)N1CCC[C@H]1C(=O)N[C@H](CCC(C)C)C(=O)N[C@@H](Cc1csc2ccccc12)C(=O)N[C@@H](Cc1ccc(F)cc1)C(N)=O [Compound 279, Ac-Phe-Orn-Pro-hle-Bta-Pff-NH2] (Ac-F[Orn]P[d(hLeu)][Bta][Phe(4-F)]-NH2) | 6.70 to 7.30
N[C@@H](CC(=O)N[C@@H](Cc1ccccc1)C(=O)N[C@H]1CCCNC(=O)[C@H](Cc2ccccc2)NC(=O)[C@H](Cc2c[nH]c3ccccc23)NC(=O)[C@@H](CC2CCCCC2)NC(=O)[C@@H]2C[C@@H](O)CN2C1=O)c1ccccc1 [Compound 318, Eby-Phe-[Orn-Hyp-cha-Trp-Phe]] (dβ3hPhg-F[Orn][Hyp][dCha]WF; lactam 2-C) | 6.70 to 7.30
CC(=O)N[C@@H](Cc1ccccc1)C(=O)N[C@@H](CCCN)C(=O)N(C)[C@@H](C)C(=O)N[C@H](CC1CCCCC1)C(=O)N[C@@H](Cc1csc2ccccc12)C(=O)N[C@@H](Cc1ccccc1)C(N)=O [Compound 246, Ac-Phe-Orn-NMA-cha-Bta-Phe-NH2] (Ac-F[Orn][NMeA][dCha][Bta]F-NH2) | 6.70 to 7.30
CCCC[C@@H]1NC(=O)[C@H](Cc2ccc(F)cc2)NC(=O)[C@@H](CC2CCCCC2)NC(=O)[C@@H]2CCCN2C(=O)[C@@H](NC(=O)[C@H](Cc2ccccc2)NC(C)=O)CCCNC1=O [Compound 186, Ac-Phe-[Orn-Pro-cha-Pff-Nle]] (Ac-F[Orn]P[dCha][Phe(4-F)][Nle]; lactam 2-C) | 6.70 to 7.30

The reported measurements were obtained from patent US20080161232A1.
